The measured values listed here are drawn from patent US20090022728A1.

TARGET_OF_ASSAY: T1, biotinylated Aβ1-40 peptide (biotinylated (N-biotinylated in Example 7))
T1 construct: captured on streptavidin (SA) chip; also called Biotinylated Aβ peptide 1-40; Aβ1-40 on SA chip
PROTOCOL: SPR, Fab over Aβ1-40 on SA chip; KD=koff/kon
OBSERVED_PROPERTY: pKd
// pKd: -log10(molar conc.)

pKd recorded for this binder, 9TL variant M40 Fab (Fab, V domains shown, Fab; human IgG2 CH1 and kappa CL) VH: QVQLVQSGAEVKKPGASVKVSCKASGYYTEAYYIHWVRQAPGQGLEWMGRIDPATGNTKYAPRLQDRVTMTRDTSTSTVYMELSSLRSEDTAVYYCASLYSTPVYWGQGTTVTVSS VL: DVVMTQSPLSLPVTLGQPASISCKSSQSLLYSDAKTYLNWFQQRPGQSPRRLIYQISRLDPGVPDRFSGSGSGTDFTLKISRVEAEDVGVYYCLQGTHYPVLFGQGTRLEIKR , is 7.85

pKd recorded for this binder, 9TL variant M12 Fab (Fab, V domains shown, Fab; human IgG2 CH1 and kappa CL) VH: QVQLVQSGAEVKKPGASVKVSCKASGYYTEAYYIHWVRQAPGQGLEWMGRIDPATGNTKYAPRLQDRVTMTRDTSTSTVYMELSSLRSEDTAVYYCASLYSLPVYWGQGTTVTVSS VL: DVVMTQSPLSLPVTLGQPASISCKSSQSLLYSDAKTYLNWFQQRPGQSPRRLIYQISRLDPGVPDRFSGSGSGTDFTLKISRVEAEDVGVYYCLQTTHYPVLFGQGTRLEIKR , is 7.98

pKd recorded for this binder, 9TL variant M28 Fab (Fab, V domains shown, Fab; human IgG2 CH1 and kappa CL) VH: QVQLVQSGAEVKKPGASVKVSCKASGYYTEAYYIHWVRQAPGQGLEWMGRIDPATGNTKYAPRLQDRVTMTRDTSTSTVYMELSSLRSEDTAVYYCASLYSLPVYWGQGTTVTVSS VL: DVVMTQSPLSLPVTLGQPASISCKSSQSLLYSDAKTYLNWFQQRPGQSPRRLIYQISRLDPGVPDRFSGSGSGTDFTLKISRVEAEDVGVYYCLQGTHYPMLFGQGTRLEIKR , is 7.36

New cases:
pKd recorded for this binder, 9TL variant M6 Fab (Fab, V domains shown, Fab; human IgG2 CH1 and kappa CL) VH: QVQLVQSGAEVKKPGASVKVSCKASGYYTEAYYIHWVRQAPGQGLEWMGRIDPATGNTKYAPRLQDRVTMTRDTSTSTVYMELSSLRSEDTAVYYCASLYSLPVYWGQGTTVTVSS VL: DVVMTQSPLSLPVTLGQPASISCKSSQSLLYSDAKTYLNWFQQRPGQSPRRLIYQISRLDPGVPDRFSGSGSGTDFTLKISRVEAEDVGVYYCKQGTHYPVLFGQGTRLEIKR , is 7.89

pKd recorded for this binder, 9TL variant C6 new Fab (Fab, V domains shown, Fab; human IgG2 CH1 and kappa CL) VH: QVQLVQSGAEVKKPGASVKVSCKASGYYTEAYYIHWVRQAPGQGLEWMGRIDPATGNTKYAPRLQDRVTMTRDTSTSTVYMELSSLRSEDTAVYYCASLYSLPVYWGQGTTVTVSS VL: DVVMTQSPLSLPVTLGQPASISCKSSQSLLYSDAKTYLNWFQQRPGQSPRRLIYQISRLDPGVPDRFSGSGSGTDFTLKISRVEAEDVGVYYCLQGTHYPVTFGQGTRLEIKR , is 8.59
